property-label: melting point

CN(C)CCn1ccc2c(NS(=O)(=O)CCc3cccc4ccccc34)cccc21: 47 to 54 °C
CN(C)CCn1ccc2c(NS(=O)(=O)c3cc(Cl)cc(Cl)c3)cccc21: 113 to 118 °C
CN(C)CCn1ccc2c(NS(=O)(=O)c3ccc(-c4ccccc4)cc3)cccc21: 137 to 140 °C

Attention now shifts to the item below.
Query string: # input compound: Cc1c(S(=O)(=O)Nc2cccc3c2ccn3CCN(C)C)sc2ccc(Cl)cc12 ; wanted: its melting point
Result string: 78 to 80 °C

Ref: patent US8097643B2
